All values here come from ChEMBL document CHEMBL1201862.

Quick reference for GI50 among some compounds
Test system: UACC-257
ASSAY_METHOD_TEXT: NCI tumour cell line growth inhibition, 48 h
Activity calls are given as the source filed them. Rule as the data show it: active = GI50 up to about 1.1 µM and inactive = higher.

Reference set, count: 5
> print(dat)
                                   compound       value.measured
1  Cc1ccc(-c2cc(=O)c3cc(C)c(C)c(C(=O)O)c3o2)cc1C  > 100 µM (inactive)
2  O=c1c(Sc2c(SCSc3cnc4ccccc4c3Sc3c[nH]c4ccccc4c3=O)cnc3ccccc23)c[nH]c2ccccc12  > 100 µM (inactive)
3  COc1nc(NC2OCC(OC(C)=O)C(OC(C)=O)C2OC(C)=O)c(/N=C(\C)C(C)=O)c(=O)n1C (stereo not drawn)  > 100 µM (inactive)
4  Brc1ccc2c(c1)C1C(CO2)C(c2ccccc2)=NN1c1ccccc1 (stereo not drawn)  > 100 µM (inactive)
5  Cc1ccc(N(C(=O)Nc2ccccc2)C2=NCC(C)S2)cc1C (stereo not drawn)   > 10 µM (inactive)

Q: I would be grateful if you could share the reported GI50 for COc1cc2ccnc(-c3c4ccccc4c(N)c4c(OC)c(OC)ccc34)c2cc1OC .
Ans: 2.32 µM (inactive)

Q: Sample COc1c(CC=C(C)C)c(O)c(C(CC(C)C)c2c(O)c(C(C)=O)c(O)c3c2OC(C(C)(C)O)C3)c(O)c1C(C)=O (stereo not drawn) [ACROFOLIONE A] — what was its GI50?
Ans: 3.2 µM (inactive)

Q: Using the record for O=C(O)C1=C(C(=O)O)Oc2ccccc2O1 , report its GI50.
Ans: > 100 µM (inactive)

Q: What measured GI50 goes with Clc1cc2ncn(C3CCCO3)c2cc1Cl (stereo not drawn) ?
Ans: > 100 µM (inactive)

Q: Which GI50 is listed for OC1(C(F)(F)F)OCCN=C1C(F)(F)F (stereo not drawn) ?
Ans: > 100 µM (inactive)
